Test system: HCT116
Assay Name: viability inhibition vs untreated; higher = more cytotoxic
Reported Conditions: genotype: MTA1-KO; 400 nM; 72 h
Would you mind telling me the reported viability inhibition of each entry?
The reply should contain only the number, in %.

Problem: Form entry - test system: HCT116; read-out: viability inhibition; compound: CC(=O)OC(C)(C)/C=C/C(=O)[C@](C)(O)[C@H]1[C@H](O)C[C@@]2(C)[C@@H]3CC=C4[C@@H](C[C@H](O)C(=O)C4(C)C)[C@]3(C)C(=O)C[C@]12C [Cucurbitacin B]
Solution: 58.7

Problem: Entry CC(O)=C(C#N)C(=O)Nc1ccc(C(F)(F)F)cc1 [Teriflunomide] please
Solution: -22.5

Problem: Entry O=C1CC(c2c[nH]c3ccc(F)cc23)C(=O)N1 (centres undefined) please
Solution: 6.53

Problem: Entry O=c1cc(O)c(Cl)c[nH]1 [Gimeracil] please
Solution: -7.69

Problem: Entry Cc1c(-c2cnccn2)ssc1=S [Oltipraz] please
Solution: -26.7

Problem: Entry NS(=O)(=O)c1cc2c(cc1Cl)NC(C(Cl)Cl)NS2(=O)=O (centres undefined) [Trichlormethiazide] please
Solution: -28.4

Problem: Entry O=C([O-])C(Cl)Cl.[Na+] [Sodium Dichloroacetate] please
Solution: -16.4

Problem: Entry CCn1c(=O)c(-c2ccn[nH]2)cc2c(C)nc(N)nc21 [Voxtalisib] please
Solution: 6.24

Problem: Entry COCCNC(=O)Nc1ccc2nc(-c3cccs3)c(-c3cccs3)nc2c1 [Ac-CoA Synthase Inhibitor1] please
Solution: 15

Problem: Entry NC(N)=O [Urea] please
Solution: -10.1

Problem: Entry CC(=NNC(=S)N1CCC1)c1ccccn1 please
Solution: 111

Problem: Entry CCN[C@H]1CN(CCCOC)S(=O)(=O)c2sc(S(N)(=O)=O)cc21 [Brinzolamide] please
Solution: -24.4

Problem: Entry O=c1cc(-c2ccc(O)cc2)oc2cc(O)cc(O)c12 [Apigenin] please
Solution: -0.547

Problem: Entry N#Cc1c(O)c2c(-c3ccc(-c4ccccc4O)cc3)csc2[nH]c1=O please
Solution: 5.93

---

System: HCT116
Assay Name: viability inhibition vs untreated; higher = more cytotoxic
Reported Conditions: genotype: MTA1-KO; 400 nM; 72 h
Reported Property: viability inhibition (%)
The reply should contain only the number, in %.

Problem: Any idea what its viability inhibition is? The compound is CC1=C(/C=C/C(C)=C/C=C/C(C)=C/C(=O)Nc2ccc(O)cc2)C(C)(C)CCC1 [Fenretinide]
Solution: -15

Problem: Entry CC1(C)CC[C@]2(C(=O)O[C@@H]3O[C@H](CO)[C@@H](O)[C@H](O)[C@H]3O)CC[C@]3(C)C(=CC[C@@H]4[C@@]5(C)CC[C@H](O[C@@H]6O[C@H](C(=O)O)[C@@H](O)[C@H](O)[C@H]6O)C(C)(C)[C@@H]5CC[C@]43C)[C@@H]2C1 please
Solution: -2.17

Problem: Entry Nc1ncnc2c1ncn2[C@@H]1O[C@H](COP(=O)(O)O)[C@@H](O)[C@H]1O [Adenosine 5'-monophosphate] please
Solution: 2

---

Tested on: HCT116
Assay Name: viability inhibition vs untreated; higher = more cytotoxic
Reported Conditions: genotype: MTA1-KO; 400 nM; 72 h
Structures can show the parent of a compound that is named as a salt.
Reported Property: viability inhibition (%)
The reply should contain only the number, in %.

Problem: Any idea what its viability inhibition is? The molecule is N#Cc1ccnc(N2C(=O)CC[C@H]2C(=O)N(c2cncc(F)c2)[C@H](C(=O)NC2CC(F)(F)C2)c2ccccc2Cl)c1
Solution: -0.782

Problem: Entry O=c1oc2ccccc2c(O)c1Cc1c(O)c2ccccc2oc1=O please
Solution: 21.4

Problem: Entry CC(C)c1c(C(=O)Nc2ccccc2)c(-c2ccccc2)c(-c2ccc(F)cc2)n1CC[C@@H](O)C[C@@H](O)CC(=O)O please
Solution: -21.3

Problem: Entry O=C(Oc1cc(S(=O)(=O)c2ccccc2)ccc1[N+](=O)[O-])c1ccc(Cl)cc1 please
Solution: 15.7

Problem: Entry COc1ccc(-c2ccc3ncc4c(c3c2)n(-c2ccc(N3CCNCC3)c(C(F)(F)F)c2)c(=O)n4C)cn1 please
Solution: 83

Problem: Entry CC(C)(C)c1cc(O)ccc1O please
Solution: -23.4

Problem: Entry O=C(Cc1ccccc1)Nc1nnc(CCSCCc2nnc(NC(=O)Cc3ccccc3)s2)s1 please
Solution: 0.728

Problem: Entry N[C@@H]1C[C@H]1c1ccccc1 [Tranylcypromine (2-PCPA) hydrochloride] please
Solution: -14.3

Problem: Entry CCN1C(=O)CNc2ncc(-c3ccc(-c4ncn[nH]4)nc3C)nc21 please
Solution: -8.79

Problem: Entry CC(C)n1c(/C=C/[C@H](O)C[C@H](O)CC(=O)O)c(-c2ccc(F)cc2)c2ccccc21 (racemic) [Fluvastatin sodium salt] please
Solution: 12.8

Problem: Entry COc1cc(Nc2nc3ccccc3nc2NS(=O)(=O)c2ccc(NC(=O)c3ccc(C)c(OC)c3)cc2)cc(OC)c1 please
Solution: -17

Problem: Entry CC1(C)CC[C@]2(C(=O)O)CC[C@]3(C)[C@H](C(=O)C=C4[C@@]5(C)C=C(C#N)C(=O)C(C)(C)[C@@H]5CC[C@]43C)[C@@H]2C1 please
Solution: -9

Problem: Entry O=C(Oc1cccc(F)c1OC(=O)c1cccc(O)c1)c1cccc(O)c1 please
Solution: -10.3

Problem: Entry CN(C)CCCCC(=O)Nc1ccc(NC(=S)NC(=O)c2ccc(C(C)(C)C)cc2)cc1 please
Solution: -23.8

Problem: Entry COCC1(CO)C(=O)C2CCN1CC2 (stereo unspecified) please
Solution: 20.1

Problem: Entry CC(=O)O[C@H]1[C@H]2O[C@]23[C@@H]2CC[C@@H]4C[C@@H](O)CC[C@]4(C)[C@H]2CC[C@]3(C)[C@H]1c1ccc(=O)oc1 please
Solution: 84.4
